Biological target: T1, biotinylated human IL-2 (amino acids 1-133, C-terminal biotin acceptor peptide) (human, UniProt P60568, biotin on the biotin acceptor peptide (BirA ligase))
T1 construct: also called immobilized IL-2; hIL-2; source: HEK 293F, purified (Ni-NTA, biotinylated with BirA, SEC)
Assay: flow cytometry on cells; yeast displaying scFv incubated with 5 nM biotinylated IL-2 and titrated IL-2Rα in PBE buffer, 2 h, room temperature; detected with Alexa Fluor 647 streptavidin
Settings: one partner purified

{"binder": "yeast-displayed 602 scFv variant H2 (scFv, V domains shown, also called H2 scFv; not shown: Aga2, N-terminal, kept) VH: EVQLQESGPGLVAPSQSLSITCTVSGFSLTNYDISWIRQPPGKGLEWLGVIWTGGGTNYNSGFMSRLSITKDNSKSQVFLKMNSLQTDDTAIYYCVRQGRSPYWGQGTLVTVSA VL: DIQVTQSPSSLSVSLGDRVTITCKASKDIHNRLAWYQQKPGNAPRLLISGATSLETGVPSRFSGSGSGKDYTLTITSLQTEDVATYYCQQVWGTPYTFGGGTKLEIK", "binding result": "binds"}
{"binder": "yeast-displayed 602 scFv variant E10 (scFv, V domains shown, also called E10 scFv; not shown: Aga2, N-terminal, kept) VH: EVQLQESGPGLVAPSQSLSITCTVSGFSLTNYDISWIRQPPGKGLEWLGVIWTGGGTNYNSGFMSRLSITKDNSKSQVFLKMNSLQTDDTAIYYCVRQGRAPYWGQGTLVTVSA VL: DIQVTQSPSSLSVSLGDRVTITCKASKDIYNRLAWYQQKPGNAPRLLISGATSLETGVPSRFSGSGSGKDYTLTITSLQTEDVATYYCQQLWGTPYTFGGGTKLEIK", "binding result": "binds"}
{"binder": "yeast-displayed 602 scFv variant A8 (scFv, V domains shown, also called A8 scFv; not shown: Aga2, N-terminal, kept) VH: EVQLQESGPGLVAPSQSLSITCTVSGFSLTNYDISWIRQPPGKGLEWLGVIWTGGGTNYNSGFMSRLSITKDNSKSQVFLKMNSLQTDDTAIYYCVRQGRTPYWGQGTLVTVSA VL: DIQVTQSPSSLSVSLGDRVTITCKASKDIYNRLAWYQQKPGNAPRLLISGATSLETGVPSRFSGSGSGKDYTLTITSLQTEDVATYYCQQFWDTPYSFGGGTKLEIK", "binding result": "binds"}
{"binder": "yeast-displayed 602 scFv variant C5 (scFv, V domains shown, also called C5 scFv; not shown: Aga2, N-terminal, kept) VH: EVQLQESGPGLVAPSQSLSITCTVSGFSLTNYDISWIRQPPGKGLEWLGVIWTGGGTNYNSGFMSRLSITKDNSKSQVFLKMNSLQTDDTAIYYCVRQGRTPYWGQGTLVTVSA VL: DIQVTQSPSSLSVSLGDRVTITCKASKDIYNRLAWYQQKPGNAPRLLISGATSLETGVPSRFSGSGSGKDYTLTITSLQTEDVATYYCQQTWGTPYTFGGGTKLEIK", "binding result": "binds"}
